# Assayed System: glucosylceramide synthase (Homo sapiens)
# Construct: made in house; host or cells: Expi293F cells (transient expression, pcDNA3.3-TOPO vector); microsome fraction used as enzyme source
# Sequence (Q16739 whole entry): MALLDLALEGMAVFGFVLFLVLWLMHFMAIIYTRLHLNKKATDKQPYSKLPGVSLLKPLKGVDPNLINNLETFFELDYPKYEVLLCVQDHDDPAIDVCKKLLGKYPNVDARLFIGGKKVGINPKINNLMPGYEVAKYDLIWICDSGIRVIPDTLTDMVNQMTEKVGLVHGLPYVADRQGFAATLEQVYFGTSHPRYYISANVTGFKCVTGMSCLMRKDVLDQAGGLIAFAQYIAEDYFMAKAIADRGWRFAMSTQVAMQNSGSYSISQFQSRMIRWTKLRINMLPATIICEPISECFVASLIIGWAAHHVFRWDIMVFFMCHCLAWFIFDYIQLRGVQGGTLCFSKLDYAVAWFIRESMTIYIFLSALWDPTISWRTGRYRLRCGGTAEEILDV
# Experimental Details: Glucosylceramide synthase (GCS) enzyme assay, microsome fraction, C8 glucosylceramide quantified by Rapidfire MS/MS
# Format: biochemical
# Experimental Parameters: test compound 10 μM; 1.7 μM UDP-glucose, 3 μM C8 ceramide; room temperature 60 min; read-out: GCS enzyme inhibitory rate at 10 μM (%) (% of control)
Measured Attribute: inhibition at 10 µM (%)

>  <Compound Smiles>
CCS(=O)(=O)c1ccc(N2Cc3c(ccnc3-c3ccc(F)cc3OCC(F)(F)F)C2=O)cc1

>  <inhibition at 10 µM (%)>
97

$$$$
>  <Compound Smiles>
Cc1cc2c(c(-c3ccccc3OCC(F)(F)F)n1)CN(c1ccc(C3(O)CCOCC3)cc1)C2=O

>  <inhibition at 10 µM (%)>
100

$$$$
>  <Compound Smiles>
N#CC1(c2ccc(N3Cc4c(ccnc4-c4ccc(F)cc4OCC(F)(F)F)C3=O)cc2)CCOCC1

>  <inhibition at 10 µM (%)>
99

$$$$
>  <Compound Smiles>
CC(C)(O)c1ccc(N2Cc3c(ccnc3-c3ccc(F)cc3OCC(F)(F)F)C2=O)cn1

>  <inhibition at 10 µM (%)>
88

$$$$
>  <Compound Smiles>
Cn1cc2c(c(-c3ccccc3OCC(F)(F)F)c1=O)CN(c1ccc(OCC(C)(C)O)cc1)C2=O

>  <inhibition at 10 µM (%)>
100

$$$$
>  <Compound Smiles>
O=C(c1ccc(N2Cc3c(ccnc3-c3ccc(F)cc3OCC(F)(F)F)C2=O)cc1)N1CC(F)(F)C1

>  <inhibition at 10 µM (%)>
89

$$$$
>  <Compound Smiles>
Cc1cc2c(c(-c3ccccc3OCC(F)F)n1)CN(c1ccc(OCC(C)(C)O)cc1)C2=O

>  <inhibition at 10 µM (%)>
100

$$$$

Ref: patent US12528802B2
